- ASSAYED_TARGET: Short transient receptor potential channel 4 (Mus musculus)
- ASSAY_TEXT: blockers of DAMGO-evoked TRPC4 calcium flux – cell-based, second round, Fluo4, HEK293 TRPC4beta/mu-opioid, 1 µM, confirmation (AID 2637);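 on inhibition: percent of integrated ratio relative to wells lacking test compound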
- TEST_CONTEXT: at 1 µM; active compounds read high
The source made the active and inactive calls.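 How the source made its calls: active means calcium signal ratio cut to more than 3 SD under the fully stimulated control mean yet still positive, in both repeats and the primary screen; inactive means the rest.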
READOUT_KIND: inhibition

Cc1cc(N2CCC(C)CC2)nc2cccc(O)c12 = 83% (active)
CN(Cc1ccccc1)Cc1nc2c(c(=O)n(C)c(=O)n2C)n1CCCc1ccccc1 = inactive
Cc1cc(Oc2ccc(C(C)(C)C)cc2)nc(N2CCOCC2)n1 = inactive
CCc1ccc(/C=C2/SC(=S)N(CCCC(=O)Nc3ccccc3C(=O)O)C2=O)cc1 = inactive
Cc1cccn2c(CNCCc3ccccn3)c(C(=O)N3CCOCC3)nc12 = inactive
Cc1cc(OCC(=O)Nc2ccc(N3CCN(C)CC3)cc2)ccc1Cl = inactive

What value of inhibition has been recorded for this entry: O=C(NCCCN1CCOCC1)c1ccc(NC(=O)C2COc3ccccc3O2)cc1 (stereo unspecified) inactive

For the molecule shown here, Cn1c(N2CCC(C(N)=O)CC2)nc2c1c(=O)n(Cc1ccc(Br)cc1)c(=O)n2C , give the reported inhibition. inactive

Value lookup for inhibition; key = CN(C)S(=O)(=O)c1ccc(Cl)c(C(=O)NC2CCN(Cc3ccccc3)C2)c1 (stereo unspecified) inactive

I am curious: what inhibition value has been reported for Cc1ccc(/C=C/C(=O)c2ccc(O)cc2)cc1 ? 38% (active)

Consider the molecule shown here: Cc1nn(-c2ccccc2)c2nc(-c3ccccc3)cc(C(=O)N3CCOCC3)c12 What is its recorded inhibition? inactive
